# system tested: TAUT1 (Homo sapiens, UniProt P31641)
# Sequence (P31641 whole entry): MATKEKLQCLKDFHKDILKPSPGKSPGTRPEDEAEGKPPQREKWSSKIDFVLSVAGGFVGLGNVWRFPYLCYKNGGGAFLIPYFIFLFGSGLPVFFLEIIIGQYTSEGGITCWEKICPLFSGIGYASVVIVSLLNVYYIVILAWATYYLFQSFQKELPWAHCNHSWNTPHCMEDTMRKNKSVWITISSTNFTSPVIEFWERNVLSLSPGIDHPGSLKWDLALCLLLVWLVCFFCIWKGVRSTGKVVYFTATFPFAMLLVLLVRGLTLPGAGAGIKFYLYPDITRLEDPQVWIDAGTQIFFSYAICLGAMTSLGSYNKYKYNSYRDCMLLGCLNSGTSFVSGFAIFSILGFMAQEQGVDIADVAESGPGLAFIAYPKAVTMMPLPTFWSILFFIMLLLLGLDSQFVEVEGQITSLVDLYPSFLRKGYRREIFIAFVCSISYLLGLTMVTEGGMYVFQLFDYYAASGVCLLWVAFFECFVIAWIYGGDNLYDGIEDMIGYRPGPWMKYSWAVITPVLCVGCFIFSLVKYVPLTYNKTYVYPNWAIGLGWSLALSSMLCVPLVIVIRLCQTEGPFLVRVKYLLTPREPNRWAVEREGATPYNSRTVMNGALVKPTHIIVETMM
# method notes: hTAUT1 competition uptake assay in HEK-TREx-TAUT1 cells
# stated conditions: HEK-TREx-TAUT1 cells induced with tetracycline; ^3H-GABA radiolabel (taurine: ^3H-taurine per Example 9); 15 min, room temperature
Label key: True means IC50 under 20 µM; False means IC50 of 20 µM or more.

Input NCC(CC(=O)O)c1ccc(Cl)cc1 (centres unmarked) ; condition: IC50 strictly below 20 µM. Does it hold?
False

Input `NCCCC(=O)O` ; condition: IC50 strictly below 20 µM. Does it hold?
False

Input `NCCS(=O)(=O)O` ; condition: IC50 strictly below 20 µM. Does it hold?
True

Input `O=C(O)Cc1c[nH]cn1` ; condition: IC50 strictly below 20 µM. Does it hold?
False

Input `N=C(N)NCCC(=O)O` ; condition: IC50 strictly below 20 µM. Does it hold?
False
